Target: human KHK-C (Homo sapiens (Human))
Sequence (P50053 whole entry): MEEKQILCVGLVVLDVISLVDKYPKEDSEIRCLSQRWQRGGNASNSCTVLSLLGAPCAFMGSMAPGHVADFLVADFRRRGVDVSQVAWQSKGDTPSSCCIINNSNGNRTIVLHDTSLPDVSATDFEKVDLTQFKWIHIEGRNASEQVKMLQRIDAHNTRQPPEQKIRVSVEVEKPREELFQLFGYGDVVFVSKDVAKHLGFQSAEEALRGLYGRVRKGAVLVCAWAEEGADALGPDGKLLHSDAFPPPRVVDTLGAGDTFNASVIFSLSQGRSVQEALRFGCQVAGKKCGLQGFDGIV
Test: KHK Biochemical Assay (IC50), ADP-Glo, KHK-C
Details: average of at least two separate assays
propertyMeasured: pIC50
Keep in mind that pIC50 stands for -log10 of concentration in molar terms.

A selection of reference data follows.
In [3]: df
Out[3]:
                                   molecule  propertymeasured  numericreadout
0  C[C@@H](NS(C)(=O)=O)c1ccc(-c2nc(N3CC[C@@H]3C)nc3c2CCC3(F)F)cc1             pIC50            7.63
1  C[C@H]1CCN1c1nc2c(c(-c3cccc4c3CC3C(C(=O)O)C43)n1)CCC2 (stereo partly shown)             pIC50            6.44
2  C[C@H]1[C@H](O)CN1c1nc(-c2ccc3c(c2)S(=O)(=O)C[C@H]3N)c2c(n1)C(F)(F)CC2 (single isomer, unassigned)             pIC50            8.57

Next molecule, please.
Q: What does the record list as pIC50 for "C[C@H]1CCN1c1nc2c(c(-c3ccc(C4(C(=O)O)CC4)cc3)n1)CCC2" ?
Ans: 6.61
